Test system: 997726-040-R-J2-PDC tumor spheroids, viability;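 further: spheroids exposed to compounds for seven days before readout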
Assay: Anticancer human tumor 997726-040-R-J2-PDC patient-derived squamous cell lung carcinoma cell line growth inhibition [PI3K]; active means viability on the fitted dose curve at most 10% of control; inactive means the rest
Conditions: second compound 10 µM; first compound 0.0316 µM; spheroids with HUVEC and MSC
Labels: active, inactive

- compound: "CCN1CCN(Cc2ccc(Nc3ncc(F)c(-c4cc(F)c5nc(C)n(C(C)C)c5c4)n3)nc2)CC1 + CC(Nc1ncnc2nc[nH]c12)c1cc2cccc(Cl)c2c(=O)n1-c1ccccc1"
  class.label: "inactive"
- compound: "C=CC(=O)N1CCN(c2nc(=O)n(-c3c(C)ccnc3C(C)C)c3nc(-c4c(O)cccc4F)c(F)cc23)C(C)C1 (stereo not given) + Cc1nc(NC(=O)N2CCCC2C(N)=O)sc1-c1ccnc(C(C)(C)C(F)(F)F)c1"
  class.label: "inactive"
- compound: "C#Cc1c(F)ccc2cc(O)cc(-c3ncc4c(N5CC6CCC(C5)N6)nc(OCC56CCCN5CC(F)C6)nc4c3F)c12 (stereo not given) + CC(Nc1ncnc2nc[nH]c12)c1cc2cccc(Cl)c2c(=O)n1-c1ccccc1"
  class.label: "inactive"
- compound: "CC(C)NCC(C(=O)N1CCN(c2ncnc3c2C(C)CC3O)CC1)c1ccc(Cl)cc1 (stereo not given) + CC(Nc1ncnc2nc[nH]c12)c1cc2cccc(Cl)c2c(=O)n1-c1ccccc1"
  class.label: "inactive"
- compound: "CC1(C)CCC(Nc2ncc(C(F)(F)F)c(-c3c[nH]c4c(P(C)(C)=O)c(C#N)ccc34)n2)CN1 (stereo not given) + Cc1nc(NC(=O)N2CCCC2C(N)=O)sc1-c1ccnc(C(C)(C)C(F)(F)F)c1"
  class.label: "active"
